system: RXF 393 renal; experiment: NCI-60 one-dose screen, 48 h; details: 10 µM unless noted
Compounds without any hit were thinned out: in the full panel of roughly 83,000, 20% have a hit. Active and inactive are the calls of the source. The calls were made as follows: active = growth percent below 10; inactive = the rest.
Just give me one of these, please: TRUE (active), FALSE (inactive)

COC(=O)[C@H](C(C)C)n1c(=O)c2cc(OC)c(OC)cc2c2cnc3[nH]ccc3c21
TRUE
Cc1ccc(S(=O)(=O)n2cc(-c3csc(-c4cn(C)c5ncccc45)n3)c3ccccc32)cc1
FALSE
CC1=C(C)C(=O)OC([C@](C)(O)[C@]2(O)CC[C@@]3(O)[C@@H]4C[C@H]5O[C@]56CC=CC(=O)[C@]6(C)[C@H]4CC[C@]23COC(=O)c2ccc(C)o2)C1 (stereo partly drawn)
TRUE
COc1ccc(Cl)cc1Nc1nc(C(F)(F)F)ccc1C(=O)N/N=C/c1cccnc1
FALSE
O=C1O[C@H]([C@H](O)CO)C(O)=C1O
FALSE
COc1ccc(S(=O)(=O)NCCCNc2cc(-c3c(-c4cccc(OC)c4)nc4sccn34)ccn2)cc1
FALSE

Recorded call for "O=C(CO[N+](=O)[O-])Nc1ccc(C(=O)/C=C/c2ccc(Cl)cc2)cc1" ?
FALSE

Recorded call for OCC1C2C=CC(C2)C1CO (stereo not drawn) ?
FALSE

====

tested on: HOP-62 NSCLC; assay: NCI-60 one-dose screen, 48 h (100 = growth as untreated, 0 = no growth, -100 = all killed); details: 10 µM unless noted
Compounds without any hit were thinned out: in the full panel of roughly 83,000, 20% have a hit.
PARAMETER_MEASURED: growth (%)
Express it in %; write the number only.

Some compounds with recorded growth:
CC(C)CC(CC1=CCC2CC1C2(C)C)C1=C(O)C(C)(C)C(=O)C(C)(C)C1=O (stereo not given)
-4.19
Cc1ccc2c(c1)n([O-])c1cc(Cl)ccc1[n+]2=O
103
CCOC(=O)c1c2c(n3ccc(NC(=O)CCN4CCOCC4)cc13)C(=O)c1ncccc1C2=O
39.9
COC(=O)[C@H](C(C)C)n1c(=O)c2cc(OC)c(OC)cc2c2cnc3[nH]ccc3c21
45.8

Which value of growth has been reported for "C[C@@H]1CC[C@@H]2[C@@H]1[C@H](OC(=O)/C=C/c1ccccc1)[C@]1(c3ccccc3)C[C@@H](OC(=O)CO)[C@@]2(C)O1" in the records?
101

====

Tested on: EKVX NSCLC
Assay: NCI-60 one-dose screen, 48 h (100 = growth as untreated, 0 = no growth, -100 = all killed)
Details: 10 µM unless noted
Experimental: Growth inhibition of the EKVX human Non-Small Cell Lung tumor cell line is measured as a screen for anti-cancer activity. Cells are grown in 96 well plates and exposed to the test compound for 48 hours. Compounds are tested at a single concentration, which is 10^-5 M for most compounds. The reported endpoint is percent growth (GI% or GIPRCNT), where numbers from 0 - 100% represent growth inhibition, and numbers from -100% - 0 represent cell death. […]
Compounds without any hit were thinned out: in the full panel of roughly 83,000, 20% have a hit.
Here the recorded growth is given for each entry.
Express it in %; write the number only.

Some molecules with recorded growth:
O=C(O)c1cn(C2CC2)c2cc(N3CCN(Cc4nc5c(cnn5-c5ccc([N+](=O)[O-])cc5)c(=O)[nH]4)CC3)c(F)cc2c1=O
93.4
CC1=N/C(=C\c2cccc(Br)c2)C(=O)O1
99.5
COc1cc(OC)c(/C=C/S(=O)(=O)Cc2cnc(OC)c(N)c2)c(OC)c1
37.9
CCN(CC)c1ccc(/C=C/C2=[N+](C)c3ccccc3C2(C)C)cc1
0.0796
O=C(Nc1ccc(CN2CCOCC2)cc1)c1[nH]ncc1Nc1ncnc2sccc12
13.4

Which value of growth has been reported for C=CC[N+]1(CC)CCN=C1CCCCCCCCCCCCCCCCC (centres undefined) in the records?
-75.7

Which value of growth has been reported for "c1ccc(CSc2ncnc3nc[nH]c23)nc1" in the records?
99.6

Which value of growth has been reported for "O=C(O)c1ccccc1Nc1cccc(S(F)(F)(F)(F)F)c1" in the records?
99.3

Which value of growth has been reported for "CC/C=C\C[C@H](O)C/C=C1/C(=O)C=C[C@@H]1C/C=C\CCCC(=O)OC(C)C" in the records?
15.9

Which value of growth has been reported for "Cn1c(=O)c2c(ncn2CC[N+](C)(C)C)n(C)c1=O" in the records?
94.6
